// provenance: the supplement of paper PMC10567573

experiment: protein stability index of a GFP-peptide fusion (GPS, HEK-293T) (PSI 1-6); higher = more stable; settings: treatment: DMSO; c terminus: a fixed tail appended;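 further: 24-mer peptide tiles fused after GFP, lentivirally expressed, FACS-sorted into six equal bins by GFP/DsRed ratio, decoded by Illumina sequencing, PSI is the read-weighted mean bin number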
# protein stability index >= 3 gives Satisfied, anything below gives Not satisfied

Previously resolved entries follow.
• GDTSATESGDEVPVELYTAFQHTP [KMT2E] = Satisfied
• KKRRLPPVHIHPAFARQAAQEPSA [FOXJ1] = Satisfied
• GGSSGKGTTLRGRSDADLVVFLSP [OAS1] = Not satisfied
• DNLRKVVPCYSKTQKLSKIETLRL [NEUROD6] = Not satisfied
• ASDIMEPNLTYVYPHTRIQSLVSI [CLCN6] = Not satisfied
• AGWTLATLGEQGLPHQSHRQRSSL [SCNN1D] = Satisfied

Now take the following sequence into account.
Exam item: # bool: protein stability index of DSKHVVLPVDDDSDLNVVASFDRR [RBBP5] >= 3
Marked response: Satisfied

====

assay: protein stability index of a GFP-peptide fusion (GPS, HEK-293T) (PSI 1-6); higher = more stable; conditions: treatment: DMSO; c terminus: a fixed tail appended
Could you label it 1 (yes) if measured protein stability index is 3 or higher, and 0 (no) otherwise?

• GAFETVLASAYTGRLSMAAADIVN [ZBTB22] = 0 (no)
• QPSFPEILLESHMVMIRGNSGLKP [POMT2] = 0 (no)
• RPLCAQGDWHSPTLIREKSFGACL [ELOA2] = 0 (no)
• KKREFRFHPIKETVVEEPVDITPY [INTS3] = 0 (no)
• KVPNHYIAIPEWFLSENATVAAET [CPXM2] = 1 (yes)

Exam item: Assess whether reported protein stability index for TDAGKAFCMFYAVLGIPLTLVMFQ [KCNK9] sits at 3 or higher.
Marked response: 1 (yes)

Exam item: Hi team, for QAEFTAMRDQYMRAGEGFIICYSI [RIT1] , is the recorded protein stability index at or above 3?
Marked response: 1 (yes)

Exam item: Can YSRYLNEKAFSYRQMAFDFARVKK [SNAP91] be said to have protein stability index at or above 3?
Marked response: 0 (no)

Exam item: Can GYPAAPPAVPFAPHFLQGGPFPLP [TBX6] be said to have protein stability index at or above 3?
Marked response: 0 (no)

Exam item: Decide: protein stability index of LLYDDLYDDDIDDEDEEEEDADCY [UBE2R2] >= 3?
Marked response: 1 (yes)

Exam item: Test whether the sequence ADVLLQAGADLEHESEGGRTPLMK [ANKRD17] records protein stability index of 3 or higher.
Marked response: 1 (yes)

====

test: protein stability index of a GFP-peptide fusion (GPS, HEK-293T) (PSI 1-6); higher = more stable; settings: treatment: MLN4924 1 uM, 8 h; c terminus: a fixed tail appended
Label false if protein stability index falls below 3; label true in every other case.

As a guide, the following entries are already answered.
• DTFQKELMCFDPDTDKWIQKAPMT [KLHL13] = true
• LKLANHQRPVSRQVTCLRTQVLED [TRAF3IP2] = true
• QLYTAYILENRPPGSLLCTVAASD [PCDHGC5] = false
• GESDNPLRFTSGLVVALDVDATLE [INTS4] = true
• RHVAPIPSHYDVQDRFRIELSEEG [MOSPD3] = true
• RGENLEHLRNKTEDLEATSEHFKT [VAMP8] = true
• VKMDQKSKHLKEMYQELMEMCHKP [TRIM43] = true
• DSKHVVLPVDDDSDLNVVASFDRR [RBBP5] = true
• QLRATAGSLILPPGPGGTMKRHSS [FCHO1] = true
• PLSVHRPPTSGCLGPVPREDQAEA [TSPAN10] = true

Consider the additional sequence presented here.
Exam item: Given the entry TGPPCDRQWTVSDWGPCSGSCGQG [ADAMTSL2] , answer whether its protein stability index meets or surpasses 3.
Marked response: true

====

Measured protein stability index, listed per entry.
assay: protein stability index of a GFP-peptide fusion (GPS, HEK-293T) (PSI 1-6); higher = more stable; conditions: treatment: DMSO; c terminus: a fixed tail appended
Lab note: jot down the number only; don't add units.

- DSCCPAGIFQAMCLLICAEMYQVS [RHOBTB3]: 3.07

Exam item: // lookup protein stability index for VGVAGLISPWNLPLYLLTWKIAPA [ALDH8A1]
Marked response: 2.92

Exam item: # get_value(readout='protein stability index', item= AEDHLDGCCKRRYLQKIEEFAEMV [KCNG1] )
Marked response: 3.06

====

assay: protein stability index of a GFP-peptide fusion (GPS, HEK-293T) (PSI 1-6); higher = more stable; details: treatment: MLN4924 1 uM, 8 h; c terminus: a fixed tail appended
Measured protein stability index accompanies every entry in the list below.

The cases that follow already have their protein stability index on record.
• EKKEKEKKKKDKEKEKEKHKVKAE [BRD3] = 5.53
• TVMILPVTHTEISPEQQFDRSVQR [TMEM175] = 3.76
• ARKLTAQRRASTVSSVTQVEVDEN [NET1] = 5.14
• ALEEPEKMGLQERSETFLEVWGNA [DNAAF3] = 4.32
• VDKYVNSFVLKNFPALLSTGEFLK [KLHL13] = 2.1
• DPTGASIALFTARLHHPHKSVQHV [PTPN9] = 2.64

For the next question, use this sequence.
Exam item: Need protein stability index of TCAPSVSYFKCVQKEVLPSMRKIV [CCND1] , thanks.
Marked response: 2.35

====

experiment: protein stability index of a GFP-peptide fusion (GPS, HEK-293T) (PSI 1-6); higher = more stable; conditions: treatment: MLN4924 1 uM, 8 h; c terminus: a fixed tail appended
quantity: protein stability index
Write the value as a bare number.

Previously resolved entries follow.
• FVETRLRDLPDTPRRFTFYPCVLA [TRIM39] = 2.16
• LFHRLDEDWDSALFAELGYFTDTD [ATF6] = 3.02

Exam item: Need protein stability index, item LVKQECIKEVVEKREACHCEEVKM [FAN1]
Marked response: 4.7

Exam item: Request the reported protein stability index associated with TYSLVPKKKTKVLKQRTVIEMFKS [EHMT1]
Marked response: 2.58

Exam item: # query: protein stability index of entry VDGRHLLRTLSRAKFWPRRRFNFF [DNAAF3]
Marked response: 2.17

Exam item: What measured protein stability index goes with FILGRLCVPVFANMSREPFSTRAL [SOAT2] ?
Marked response: 2.56

Exam item: Recorded protein stability index of MYILSPAVLRRIQLQPTSIEKEVF [GMPPB] , please.
Marked response: 2.24

====

assay: protein stability index of a GFP-peptide fusion (GPS, HEK-293T) (PSI 1-6); higher = more stable; conditions: treatment: DMSO; c terminus: a fixed tail appended
quantity: protein stability index
Enter the number alone.

* KQDSLVILTIMATLKIRNSNFYTV [TMEM106C] | 3.25
* DQCKINKQIYNLIHLDPRTREGFT [FEM1B] | 2.2

Alright, here's another sequence for you.
Exam item: Return reported protein stability index; argument: LHRTEGELQKIVQAGDKDLDGQLD [SLC25A25]
Marked response: 5.58

====

experiment: protein stability index of a GFP-peptide fusion (GPS, HEK-293T) (PSI 1-6); higher = more stable; settings: treatment: DMSO; c terminus: a fixed tail appended
Answer n if protein stability index is under 3, and y if it is 3 or more.

* TWKVLFCSMSATFTLNFFRSGIQF [CLCN6] | y
* SKQSPPMASSPIQPRKGGADWLGL [FBF1] | y
* YDIAKHLTYENVERWLKELRDHAD [RAB11A] | n
* TILLDGQRVKLKLWDTSGQGRFCT [RAB40A] | n
* ARALLEDDSDTQQVVVLVRDNGDP [PCDHGC5] | y
* LAKEIRVKAEPFIKWLKEAEEESS [EIF5] | y
* DINLNSPNKGLLSDSMTDVPVDTG [TPD52L2] | y
* HTCLMISCYKGHREIARYLLEQGA [FEM1A] | n
* EEDEQLRALVRQFGQQDWKFLASH [MYBL2] | y
* YEHYERVENGDFNWIVPGKFLAFS [CDC14A] | n

Exam item: Hello, I need to know if TKPKTTAIQGISEKEKAEIEAKEA [DLC1] has measured protein stability index not below 3. Thanks!
Marked response: y

Exam item: Is protein stability index for ANGGAICAVTFFTILLSYGVILHS [OR4A15] at or above 3?
Marked response: n

Exam item: Does SRVTAFLDDLSQKLKPLGEAEREF [NLN] have a reported protein stability index of at least 3?
Marked response: n

Exam item: Is it the case that EWDKNKSAFPFSDKLGELSDKIGS [CLINT1] has protein stability index reaching or exceeding 3?
Marked response: y

Exam item: Form field: protein stability index at least 3? Entry: NSTLDPHGHLILHSMHKYQPRIHL [TBX6]
Marked response: n

Exam item: Determine whether measured protein stability index meets or exceeds 3 for TICYCPEKGTWTELEGDVAEPLAG [KLHL14]
Marked response: y

Exam item: Given the entry PPATQNTFGNSTLALGPGESLPHR [PLAGL1] , answer whether its protein stability index meets or surpasses 3.
Marked response: y

Exam item: In plain terms: is recorded protein stability index at least 3 for SSLCYKQRIKSQERETEATRGRGG [MOG] ?
Marked response: y

Exam item: Kindly determine if protein stability index recorded for PHYPEYFQQPAPEYHQPQAPANVA [LOXL2] is above or exactly 3.
Marked response: y

Exam item: Threshold query (protein stability index >= 3) on NLFVMQVEMDIYTALKKWMFLQLV [GMCL1]
Marked response: n

Exam item: Quick check, protein stability index >= 3? SDRRKEKDPKAGDSKSGGSGSESD [DVL3]
Marked response: y

Exam item: Check the entry SEDQKRLKQAKELDRERAAANEQL [CHCHD3] : does protein stability index equal or exceed 3?
Marked response: y

Exam item: Reported protein stability index at or above 3? FDYEYDWIGKQLPTPVGAVQQDPA [CSNK1G3]
Marked response: y

Exam item: Textbook exercise: given the entry SGGGSTSAAGIEARSRALRRRWCP [SPACA3] , state whether its protein stability index is greater than or equal to 3.
Marked response: y

Exam item: Tell me whether protein stability index is at least 3 here: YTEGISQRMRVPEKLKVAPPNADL [MFF]
Marked response: y

Exam item: Entry GVGGKRSSKSDADSGFLGLRPTSV [NOP53] : is its protein stability index no less than 3?
Marked response: y

Exam item: Determine whether measured protein stability index meets or exceeds 3 for DRISTTFRLTTLLMSGCSSELKNR [PLK2]
Marked response: n

Exam item: # check: protein stability index of YNHQHKYFFLIGPPALLPLYFQWY [FADS1] is greater than or equal to 3
Marked response: y

Exam item: Reported protein stability index at or above 3? RDEAIYECVASNNVGEISVSTRLT [PTPRD]
Marked response: y
